# study system: Cascade (Cas7-tagged prep) (Escherichia coli) (UniProt Q46901+P76632+Q46899+Q46898+Q46897)
# assay info: EMSA
experimental endpoint: Kd

Problem: Give the measured Kd for GCGCGGCAAGCCGAAAGCATGACGGTATTGTTCAGATCCTGGCTTGCCAACAGTGATTGCTCGGGAGTCGCT (double strand) [72 bp dsDNA target (+21), CAT PAM]
Result: 13.3 nM
